target: UniProt Q12809; test: Inhibition of human ERG over-expressed in HEK293 cell membrane by [3H]dofetilide binding assay; type: cell membranes
Sequence (Q12809 whole entry): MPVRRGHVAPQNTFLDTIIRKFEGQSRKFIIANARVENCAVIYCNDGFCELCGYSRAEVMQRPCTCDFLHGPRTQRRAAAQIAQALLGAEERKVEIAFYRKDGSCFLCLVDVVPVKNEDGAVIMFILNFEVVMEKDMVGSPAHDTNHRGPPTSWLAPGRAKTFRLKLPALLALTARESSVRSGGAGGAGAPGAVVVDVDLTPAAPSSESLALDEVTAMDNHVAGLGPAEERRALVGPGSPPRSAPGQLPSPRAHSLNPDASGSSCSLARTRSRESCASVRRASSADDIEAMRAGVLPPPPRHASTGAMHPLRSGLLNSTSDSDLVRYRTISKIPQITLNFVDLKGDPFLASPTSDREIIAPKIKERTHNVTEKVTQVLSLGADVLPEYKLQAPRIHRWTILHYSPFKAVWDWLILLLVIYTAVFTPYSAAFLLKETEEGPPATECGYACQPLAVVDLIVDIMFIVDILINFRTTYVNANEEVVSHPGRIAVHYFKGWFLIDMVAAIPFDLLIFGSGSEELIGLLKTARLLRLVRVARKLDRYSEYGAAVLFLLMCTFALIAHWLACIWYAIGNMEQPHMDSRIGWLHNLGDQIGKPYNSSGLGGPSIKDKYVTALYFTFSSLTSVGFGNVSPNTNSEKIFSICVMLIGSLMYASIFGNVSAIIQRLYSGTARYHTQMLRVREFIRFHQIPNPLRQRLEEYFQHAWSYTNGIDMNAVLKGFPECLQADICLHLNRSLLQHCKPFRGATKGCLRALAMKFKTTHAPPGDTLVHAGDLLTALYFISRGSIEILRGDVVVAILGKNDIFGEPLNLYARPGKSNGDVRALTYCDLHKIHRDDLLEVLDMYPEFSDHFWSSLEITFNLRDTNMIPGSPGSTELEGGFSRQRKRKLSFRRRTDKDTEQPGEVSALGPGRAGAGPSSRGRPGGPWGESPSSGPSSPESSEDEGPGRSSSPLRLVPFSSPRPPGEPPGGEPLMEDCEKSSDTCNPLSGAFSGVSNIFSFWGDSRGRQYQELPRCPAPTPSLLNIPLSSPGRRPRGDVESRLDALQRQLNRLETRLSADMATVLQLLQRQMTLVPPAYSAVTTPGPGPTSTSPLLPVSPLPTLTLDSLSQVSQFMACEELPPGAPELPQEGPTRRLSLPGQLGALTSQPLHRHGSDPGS
pIC50: −log10 of the molar value.

- COMPOUND: "CN(C)c1ccc(/C=C/c2c(F)cccc2Cl)cn1"
  pIC50: 4.23
- COMPOUND: "CN(C)c1ncc(/C=C/c2c(F)cccc2F)cn1"
  pIC50: 4.39
- COMPOUND: "CN(C)c1ccc(/C=C/c2c(F)cccc2Cl)nc1"
  pIC50: 4.68
- COMPOUND: "CNc1ccc(/C=C/c2c(F)cccc2F)cc1"
  pIC50: 4.31
- COMPOUND: "CNc1ccc(/C=C/c2c(F)cccc2Cl)cc1"
  pIC50: 4.30
- COMPOUND: "CNc1ccc(/C=C/c2c(F)cccc2Cl)cn1"
  pIC50: 4.70
- COMPOUND: "CN(C)c1ccc(/C=C/c2c(F)cccc2F)nc1"
  pIC50: 4.68

* * *

compounds and their reported IC50
assay: Antiproliferative activity against human LS 174T cells by cell viability analyzer; format: functional, cell-based; conditions: LS174T
REPORTED_METRIC: IC50 (nM)

- COMPOUND: "CNc1ncc(/C=C/c2c(F)cccc2F)cn1"
  COMPARISON_OPERATOR: ">"
  REPORTED_VALUE: 200
- COMPOUND: "CN(C)c1ncc(/C=C/c2c(Cl)cccc2Cl)cn1"
  COMPARISON_OPERATOR: ">"
  REPORTED_VALUE: 200
- COMPOUND: "CNc1ccc(/C=C/c2c(F)cccc2F)cn1"
  COMPARISON_OPERATOR: "="
  REPORTED_VALUE: 30.1
- COMPOUND: "CN(C)c1ccc(/C=C/c2c(F)cccc2Cl)cc1"
  COMPARISON_OPERATOR: "="
  REPORTED_VALUE: 19.2
- COMPOUND: "CN(C)c1ccc(/C=C/c2c(Cl)cccc2Cl)cc1"
  COMPARISON_OPERATOR: "="
  REPORTED_VALUE: 214
- COMPOUND: "CNc1ccc(/C=C/c2c(F)cccc2Cl)cc1"
  COMPARISON_OPERATOR: "="
  REPORTED_VALUE: 7.6
- COMPOUND: "CNc1ncc(/C=C/c2c(F)cccc2Cl)cn1"
  COMPARISON_OPERATOR: ">"
  REPORTED_VALUE: 200
- COMPOUND: "CN(C)c1ccc(/C=C/c2c(Cl)cccc2Cl)cn1"
  COMPARISON_OPERATOR: "="
  REPORTED_VALUE: 30.1
- COMPOUND: "CN(C)c1ccc(/C=C/c2c(F)cccc2F)cc1"
  COMPARISON_OPERATOR: "="
  REPORTED_VALUE: 26.9
- COMPOUND: "CNc1ccc(/C=C/c2c(Cl)cccc2Cl)cn1"
  COMPARISON_OPERATOR: "="
  REPORTED_VALUE: 19.6
- COMPOUND: "CNc1ccc(/C=C/c2c(F)cccc2Cl)cn1"
  COMPARISON_OPERATOR: "="
  REPORTED_VALUE: 4
